Test system: UO-31 renal
Assay: NCI tumour cell line growth inhibition, 48 h; in the data active = GI50 below about 0.43 µM; inactive = the rest
Your response should consist of one outcome taken from active, inactive

Solved entries:
{"columns": ["compound", "assignedLabel"],
 "data": [
  ["CC1(C)CCC(c2ccc(Cl)cc2)=C(CN2CCN(c3ccc(C(=O)NS(=O)(=O)c4ccc(N[C@H](CCN5CCOCC5)CSc5ccccc5)c(S(=O)(=O)C(F)(F)F)c4)cc3)CC2)C1", "inactive"],
  ["Fc1cnccc1-c1nc2ccc3[nH]ncc3c2c2c1CCCC2", "inactive"],
  ["Cc1cc(C)c(CNC(=O)c2cc(Cl)c3c(c2C)O[C@@](C)(C2CCC(N(C)C)CC2)O3)c(=O)[nH]1 (stereo not given in full)", "inactive"],
  ["CCCN1CCCC(c2ccc(Nc3nc(Nc4cc(F)ccc4C(N)=O)c4cc[nH]c4n3)c(OC)c2)C1 (stereo not given)", "inactive"],
  ["CN1CC[C@H](N(C)C(=O)N2CC(c3cc(F)ccc3F)=C[C@@]2(CO)c2ccccc2)[C@H](F)C1", "inactive"]
]}

What call does the record list for COc1cc(C(=O)N[C@@H]2CCCN(C)C2)ccc1Nc1ncc2c(n1)N(C1CCCC1)CC(C)(C)C(=O)N2C ?
inactive

And what about the compound Nc1ncnc2c1ncn2C1SC(CO)C(O)C1O (stereo not given) ?
inactive

And what about the compound COc1cc(/C=C2\C(=O)Nc3ccc(O)cc32)cc(OC)c1OC ?
inactive

And what about the compound CN(C)c1ccc(-c2cc(-c3cccc(NS(C)(=O)=O)c3)nc(N)c2C#N)cc1 ?
active

And what about the compound COc1cnc2c(c1)C(=O)c1c-2n(CCCN2CCNCC2)c(=O)c2cc(F)ccc12 ?
active

And what about the compound CCN(CC)c1ccc(C=C2C(=O)NC(=S)NC2=O)cc1 ?
inactive

And what about the compound N/C(=N\O)c1cn(C2OC(CO)C(O)C2O)c2ncnc(N)c12 (stereo not given) ?
active

And what about the compound N=C(N)c1ccc(-c2ccc(-c3cccs3)s2)cc1F ?
inactive

And what about the compound O=c1[nH]c(-c2ccncc2)nc2sc3c(c12)CCCCCC3 ?
inactive

And what about the compound COc1ccc2c(c1)OCC1c3cc(OC)ccc3OC21 (stereo not given) ?
inactive

Source: PubChem BioAssay (NCI)
